Source of measurements: ChEMBL document CHEMBL1133129

- Test system: P388
- PROTOCOL TEXT: In vitro antiproliferative activity measured against P388 cancer cell line using MTT colorimetric assay
- Format: functional, cell-based
- TEST PARAMETERS: Mus musculus
Exercise: for every item that follows, state its recorded IC50.
Field format: number, assumed µg/mL, no unit text.

Asked: Write down the reported IC50 of Cc1ccc(S(=O)(=O)Nc2cccc3cc(Cl)[nH]c23)cc1 , test system: P388.
Given back: 0.14

Asked: Write down the reported IC50 of N#Cc1ccc(S(=O)(=O)Nc2ccc(Cl)c3cc[nH]c23)cc1 , test system: P388.
Given back: 1.8
